Target: bradykinin B2 receptor (Cavia porcellus, UniProt O70526)
Construct: Ileum segments are isolated from male guinea-pigs; from tissue; host or cells: guinea-pig ileum (Dunkin-Hartley strain; animals from Iffa Credo)
Sequence (O70526 1-372): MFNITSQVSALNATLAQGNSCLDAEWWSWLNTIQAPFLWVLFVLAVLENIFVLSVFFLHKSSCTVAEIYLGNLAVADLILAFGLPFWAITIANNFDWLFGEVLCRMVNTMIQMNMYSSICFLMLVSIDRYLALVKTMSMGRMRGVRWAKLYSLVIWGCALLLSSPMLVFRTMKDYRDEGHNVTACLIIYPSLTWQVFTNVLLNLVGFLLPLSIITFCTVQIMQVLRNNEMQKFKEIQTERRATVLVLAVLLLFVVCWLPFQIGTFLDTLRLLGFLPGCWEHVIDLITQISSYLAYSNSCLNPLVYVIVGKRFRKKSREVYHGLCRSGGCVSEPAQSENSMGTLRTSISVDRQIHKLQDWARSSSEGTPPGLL
Assay: Inhibition of [3H]-bradykinin binding to guinea-pig ileum membranes
Settings: test compound 10^-6 M, [3H]-bradykinin 120 pM, 90 min at 20° C.
Activity % (percentage inhibition of the binding of [3H]-bradykinin) listing for selected compounds.
Reply numerically in %, unit not repeated.

Use these answered entries as a reference point.
compound string: CC(=O)c1c(C)nc2c(OCc3c(Cl)ccc(S(=O)(=O)N4CCC[C@H]4C(=O)NCCCNC(=O)c4ccc(C(=N)N)cc4)c3Cl)cccn12.CS(=O)(=O)O.CS(=O)(=O)O
target or test system: bradykinin B2 receptor (Cavia porcellus, UniProt O70526)
reading unit: %
reading: 100
//
compound string: CS(=O)(=O)O.CS(=O)(=O)O.Cc1cc(=O)n2cccc(OCc3c(Cl)ccc(S(=O)(=O)N4CCC[C@H]4C(=O)NCCCNC(=O)c4ccc(C(=N)N)cc4)c3Cl)c2n1
target or test system: bradykinin B2 receptor (Cavia porcellus, UniProt O70526)
reading unit: %
reading: 99.3
//
compound string: CS(=O)(=O)O.CS(=O)(=O)O.Cc1cc(=O)n2cccc(OCc3c(Cl)ccc(S(=O)(=O)N4CCC[C@H]4C(=O)N4CCN(C(=O)c5ccc(C(=N)N)cc5)CC4)c3Cl)c2n1
target or test system: bradykinin B2 receptor (Cavia porcellus, UniProt O70526)
reading unit: %
reading: 96

The observed Activity % (percentage inhibition of the binding of [3H]-bradykinin) for CS(=O)(=O)O.CS(=O)(=O)O.Cc1nc2c(OCc3c(Cl)ccc(S(=O)(=O)N4CCC[C@H]4C(=O)N4CCN(C(=O)c5ccc(C(=N)N)cc5)CC4)c3Cl)cccn2c1Cl when tested with bradykinin B2 receptor (Cavia porcellus, UniProt O70526) stands at 100

The observed Activity % (percentage inhibition of the binding of [3H]-bradykinin) for CS(=O)(=O)O.CS(=O)(=O)O.Cc1nc2c(OCc3c(Cl)ccc(S(=O)(=O)N4CCC[C@H]4C(=O)NCCCNC(=O)c4ccc(C(=N)N)cc4)c3Cl)cccn2c1Cl when tested with bradykinin B2 receptor (Cavia porcellus, UniProt O70526) stands at 100

All values here come from patent US6384222B1.
